Measured values drawn from patent US10144715B2 for this set.

# TESTED_SYSTEM: LXR β LBD protein (Homo sapiens (Human), UniProt P55055)
# CONDITION: read-out: FRET LXRβ IC50
# Sequence (P55055 222-460): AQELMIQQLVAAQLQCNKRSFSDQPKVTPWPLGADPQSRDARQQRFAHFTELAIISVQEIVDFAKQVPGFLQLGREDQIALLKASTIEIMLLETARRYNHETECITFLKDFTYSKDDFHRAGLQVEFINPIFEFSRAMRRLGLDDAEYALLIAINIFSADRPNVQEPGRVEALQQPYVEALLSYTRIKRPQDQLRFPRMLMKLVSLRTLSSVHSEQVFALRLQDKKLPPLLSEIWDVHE
QUANTITY_KIND: IC50

(Q) Can you share its IC50? I mean this molecule: CS(=O)(=O)c1cccc(N2CCN(Cc3ccc(C(F)(F)F)cc3)[C@H](c3ccccc3)C2)c1 (single isomer, unassigned)
(A) > 50 µM

----------
Answer each item with its documented EC50.
# TESTED_SYSTEM: Gal4 DNA binding domain fused to the LBD of LXRβ in HEK293 cells (Homo sapiens (Human))
# Sequence (P55055 222-460 limits assumed): as the sequence (P55055 222-460) above
# MEASUREMENT_NOTES: cell-based
# CONDITION: Biological Test Example 2, agonist mode; read-out: Cell LXRβ EC50
State just the number; it will be interpreted in nM.

(Q) Field request: EC50 | item: "CS(=O)(=O)c1cc(N2CCN(C[C@H]3CC[C@@H](C(F)(F)F)CC3)[C@@H](c3ccc(F)cc3)C2)ccc1F"
(A) 112

(Q) Consider next the compound CC(C)[C@H]1CC[C@H](CN2CCN(c3ccc(CO)c(S(C)(=O)=O)c3)C[C@@H]2c2ccccc2)CC1 (single isomer, unassigned) in the same way.
(A) 360

(Q) Another compound: "CS(=O)(=O)c1cccc(N2CCN(C[C@H]3CC[C@]4(CC3)CC4(F)F)[C@H](c3ccccc3)C2)c1"
(A) 2880

(Q) Now the compound CS(=O)(=O)c1cccc(N2CCN(C[C@H]3CC[C@H](C(F)(F)F)CC3)[C@@H](c3ccccc3Cl)C2)c1 (single isomer, unassigned)
(A) 910

(Q) Then CS(=O)(=O)c1cccc(N2CCN(C[C@H]3CC[C@@]4(CC3)CC4(F)F)[C@@H](c3ccccc3)C2)c1 (single isomer, unassigned) ?
(A) 151

(Q) Can you handle "CS(=O)(=O)c1cccc(N2CCN(C[C@@H]3C[C@@H]4[C@H](C3)C4(F)F)[C@H](c3ccccc3)C2)c1" next?
(A) 2400

----------
# TESTED_SYSTEM: LXR β LBD protein (Homo sapiens (Human), UniProt P55055)
# MEASUREMENT_NOTES: biochemical
# Type: binding
# CONDITION: read-out: LXRβ Binding Ki
# Sequence (P55055 222-460 limits assumed): as the sequence (P55055 222-460) above
pKi: −log10 of the molar value.
Binning rule for recorded pKi: 0: < 7; 1: ≥ 7 and < 8; 2: ≥ 8

(Q) GET /class?item= CC(C)[C@@H]1CN(c2ccc(F)c(S(C)(=O)=O)c2)CCN1c1ncc(CN(C)C)c(C(F)(F)F)n1 [15-3]
(A) 1

(Q) Same question for CC[C@H](O)c1cnc(N2CCN(c3ccc(F)c(S(C)(=O)=O)c3)C[C@H]2C(C)C)nc1C(F)(F)F (single isomer, unassigned) [12-6] please.
(A) 1

(Q) Follow-up entry: CC(C)[C@@H]1CN(c2ccc(CO)c(S(C)(=O)=O)c2)CCN1c1nc(C(F)(F)F)c(C(=O)N(C)C)s1 [17-34]
(A) 1

(Q) Okay, and CC(C)[C@@H]1CN(c2ccc(F)c(S(C)(=O)=O)c2)CCN1c1nc(C(F)(F)F)c(C(C)(C)O)s1 [Cpd No 26-1] ?
(A) 2

(Q) Request: COC(=O)NCCCN(C)C(=O)c1cnc(N2CCN(c3ccc(F)c(S(C)(=O)=O)c3)C[C@H]2C(C)C)nc1C(F)(F)F [17-19]
(A) 0

(Q) Would you kindly repeat that for CC(C)[C@@H]1CN(c2ccc(F)c(S(C)(=O)=O)c2)CCN1c1ccc(C(F)(F)F)cn1 [7-36] ?
(A) 2

(Q) And what about the compound CC(F)(F)[C@H]1CC[C@@H](CN2CCN(c3cccc(S(C)(=O)=O)c3)C[C@H]2c2ccccc2)CC1 (single isomer, unassigned) [48-29] ?
(A) 0

(Q) What would you report for CC(C)c1ccc(CN2CCN(c3cccc(S(C)(=O)=O)c3)C[C@@H]2c2ccccc2)cc1 [46-8] ?
(A) 0

(Q) What would you report for CNS(=O)(=O)c1cc(N2CCN(c3ncc(C(C)O)c(C(F)(F)F)n3)[C@H](C(C)C)C2)ccc1F (some centres unmarked) [12-8] ?
(A) 2

(Q) Would you mind doing CC(C)c1ccc(CN2CCN(c3cccc(S(C)(=O)=O)c3)CC2c2ccccc2)cn1 (centres unmarked) [46-42] as well?
(A) 0

(Q) Ok, now CC(C)[C@@H]1CN(c2ccc(F)c(S(C)(=O)=O)c2)CCN1c1ncc(C(N)=O)c(C(F)(F)F)n1 [Cpd No 17-2]
(A) 1

(Q) Cool, now CSCc1cnc(N2CCN(c3ccc(F)c(S(C)(=O)=O)c3)C[C@H]2C(C)C)nc1C(F)(F)F [15-8]
(A) 2

(Q) Would you kindly repeat that for CS(=O)(=O)c1cccc(N2CCN(C[C@H]3CC[C@](C)(O)CC3)[C@@H](c3ccccc3)C2)c1 (single isomer, unassigned) [Cpd No 48-7] ?
(A) 0

(Q) Same question, CS(=O)(=O)c1cccc(N2CCN(Cc3ccc(C(F)(F)F)cc3)[C@@H](c3ccc(F)cc3)C2)c1 [46-24] this time
(A) 0

(Q) Try CC(C)[C@@H]1CN(c2ccc(C(N)=O)c(S(C)(=O)=O)c2Cl)CCN1c1nccc(C(F)(F)F)n1 [4-3] next.
(A) 0

(Q) Same for CC(C)[C@@H]1CN(c2ccc(CO)c(S(C)(=O)=O)c2)CCN1c1ccc(C(F)(F)F)nc1 [Cpd No 20-4]
(A) 1
